Tested on: Enterococcus sp.
Assay: In vitro antibacterial evaluation: minimum inhibitory concentration (MIC), broth dilution method
Type: cell-based
Details: broth dilution, 18 hours at 35° C.
Numbered stars: 1 amine (or outer) side, 2 acyl side, 3 side chain; on linkers, the order of the positions; unused ones are H or OH. Square brackets hold non-standard residues; d marks the D form. Peptide text beside a SMILES is read from it. ξ: configuration not given here. X1 = N=C1NCC(C(O)C(N[*:1])C(=O)[*:2])N1C1OC(CO)C(O)C(O)C1O; ξEnduracididine(βξ-OH,4'ξ) = N=C1NCC(C(O)C(N)C(=O)O)N1; ξCha(3ξ-Me) = CC(C1CCCCC1)C(N)C(=O)O; Cha = N[CH](CC1CCCCC1)C(=O)O
REPORTED METRIC: MIC Enterococcus avium (GC 4558) (µg/mL)
Give bare numbers, in µg/mL.

Reported MIC Enterococcus avium (GC 4558) for N=C1NCC(C(O)C2NC(=O)C(CC3CCCCC3)NC(=O)C(CC3CCCCC3)NC(=O)CNC(=O)C(CO)NC(=O)C(C(O)C3CNC(=N)N3C3OC(CO)C(O)C(O)C3O)NC2=O)N1 (stereo not drawn) [Example 52] (cyclo(G[Cha][Cha][ξEnduracididine(βξ-OH,4'ξ)][X1]S); configuration not given here) : what is it?
32

Also check CC(c1ccccc1)C1NC(=O)CNC(=O)C(CO)NC(=O)C(C(O)C2CNC(=N)N2C2OC(CO)C(O)C(O)C2O)NC(=O)C(C(O)C2CNC(=N)N2)NC(=O)C(Cc2ccc3oc(-c4cccc(F)c4)nc3c2)NC1=O (centres unmarked)
16

Also check CC(c1ccccc1)C1NC(=O)CNC(=O)C(CO)NC(=O)C(C(O)C2CNC(=N)N2C2OC(CO)C(O)C(O)C2O)NC(=O)C(C(O)C2CNC(=N)N2)NC(=O)C(Cc2ccc3oc(SCC(=O)c4ccccc4)nc3c2)NC1=O (centres unmarked)
8

Also check CC(c1ccccc1)C1NC(=O)CNC(=O)C(CO)NC(=O)C(CC2CNC(=N)N2C2OC(CO)C(O)C(O)C2O)NC(=O)C(CC2CNC(=N)N2)NC(=O)C(Cc2ccc3oc(-c4ccc5c(c4)Cc4ccccc4-5)nc3c2)NC1=O (centres unmarked)
4

Also check CC(c1ccccc1)C1NC(=O)CNC(=O)C(CO)NC(=O)C(C(O)C2CNC(=N)N2C2OC(CO)C(O)C(O)C2O)NC(=O)C(C(O)C2CNC(=N)N2)NC(=O)C(Cc2ccc3oc(-c4ccoc4)nc3c2)NC1=O (centres unmarked)
64

Also check CC(c1ccccc1)C1NC(=O)CNC(=O)C(CO)NC(=O)C(C(O)C2CNC(=N)N2C2OC(CO)C(O)C(O)C2O)NC(=O)C(C(O)C2CNC(=N)N2)NC(=O)C(Cc2ccc3oc(SCc4ccc(-c5ccccc5)cc4)nc3c2)NC1=O (centres unmarked)
2

List reported MIC Enterococcus avium (GC 4558) for each of these compounds:
1. CC(c1ccccc1)C1NC(=O)CNC(=O)C(CO)NC(=O)C(C(O)C2CNC(=N)N2C2OC(CO)C(O)C(O)C2O)NC(=O)C(C(O)C2CNC(=N)N2)NC(=O)C(Cc2ccc(O)c(NC(=O)c3ccccc3)c2)NC1=O (centres unmarked)
2. CC(C1CCCCC1)C1NC(=O)CNC(=O)C(CO)NC(=O)C(C(O)C2CNC(=N)N2C2OC(CO)C(O)C(O)C2O)NC(=O)C(C(O)C2CNC(=N)N2)NC(=O)C(CC2CCCCC2)NC1=O (stereo not drawn) [Example 53] (cyclo(G[ξCha(3ξ-Me)][Cha][ξEnduracididine(βξ-OH,4'ξ)][X1]S); configuration not given here)

1. 64
2. 4

---

Tested on: Streptococcus sp.
Assay: In vitro antibacterial evaluation: minimum inhibitory concentration (MIC), broth dilution method
Assay type: cell-based
Conditions: broth dilution, inoculum 5×10^5 CFU/mL, 18 hours at 35° C.
Please provide measured MIC Streptococcus pneumoniae (ATCC 6301) for the entries that follow.
Answers are plain numbers, in µg/mL.

Guide cases for MIC Streptococcus pneumoniae (ATCC 6301), answers given:
Reported MIC Streptococcus pneumoniae (ATCC 6301) for CC(c1ccccc1)C1NC(=O)CNC(=O)C(CO)NC(=O)C(C(O)C2CNC(=N)N2C2OC(CO)C(O)C(O)C2O)NC(=O)C(C(O)C2CNC(=N)N2)NC(=O)C(Cc2ccc(OC3OC(CO)C(OC4OC(CO)C(O)C5OC(c6ccc(-c7ccsc7)cc6)OC45)C(O)C3O)cc2)NC1=O (stereo not shown) [Example 164a] : what is it?
1

Also check CCCC(C)C1OCC2OC(OC3C(CO)OC(Oc4ccc(CC5NC(=O)C(C(C)c6ccc(Cl)cc6)NC(=O)CNC(=O)C(CO)NC(=O)C(C(O)C6CNC(=N)N6C6OC(CO)C(O)C(O)C6O)NC(=O)C(C(O)C6CNC(=N)N6)NC5=O)cc4)C(O)C3O)C(O)C(O)C2O1 (stereo not shown) [Example 194]
0.25

Also check CC(c1ccccc1)C1NC(=O)CNC(=O)C(CO)NC(=O)C(C(O)C2CNC(=N)N2C2OC(CO)C(O)C(O)C2O)NC(=O)C(C(O)C2CNC(=N)N2)NC(=O)C(Cc2ccc(OC3OC(CO)C(OC4OC5COC(c6ccccc6)OC5C(O)C4O)C(O)C3O)c(I)c2)NC1=O (stereo not shown) [Example 196]
64

Then there is this molecule:
Reported MIC Streptococcus pneumoniae (ATCC 6301) for CC(c1ccccc1)C1NC(=O)CNC(=O)C(CO)NC(=O)C(CC2CNC(=N)N2C2OC(CO)C(O)C(O)C2O)NC(=O)C(CC2CNC(=N)N2)NC(=O)C(Cc2ccc(OC3OC(CO)C(OC4OC(COCc5ccc(OCc6ccccc6)cc5)C(O)C(O)C4O)C(O)C3O)cc2)NC1=O (stereo not shown) [Example 246] : what is it?
2

---

Test system: Staphylococcus sp.
Test: In vitro antibacterial evaluation: minimum inhibitory concentration (MIC), broth dilution method
Format: cell-based
Details: Staphylococcus aureus (GC 4542); 18 hours at 35° C.
REPORTED METRIC: MIC Staphylococcus aureus (GC 4542) (µg/mL)
Answers are plain numbers, in µg/mL.

Guide cases for MIC Staphylococcus aureus (GC 4542), answers given:
Reported MIC Staphylococcus aureus (GC 4542) for CC(c1ccccc1)C1NC(=O)CNC(=O)C(CO)NC(=O)C(CC2CNC(=N)N2C2OC(CO)C(O)C(O)C2O)NC(=O)C(CC2CNC(=N)N2)NC(=O)C(Cc2ccc(OC3OC(CO)C(OC4OC(CO)C(OCc5ccc(OCc6ccccc6)cc5)C(O)C4O)C(O)C3O)cc2)NC1=O (stereo not shown) [Example 246a] : what is it?
1

Also check CC(c1ccccc1)C1NC(=O)CNC(=O)C(CO)NC(=O)C(C(O)C2CNC(=N)N2C2OC(CO)C(O)C(O)C2O)NC(=O)C(C(O)C2CNC(=N)N2)NC(=O)C(Cc2ccc(OC3OC(CO)C(OC4OC(COCc5ccc(Oc6ccccc6)cc5)C(O)C(O)C4O)C(O)C3O)cc2)NC1=O (stereo not shown)
4

Also check COc1ccc(COCC2OC(OC3C(CO)OC(Oc4ccc(CC5NC(=O)C(C(C)c6ccccc6)NC(=O)CNC(=O)C(CO)NC(=O)C(C(O)C6CNC(=N)N6C6OC(CO)C(O)C(O)C6O)NC(=O)C(C(O)C6CNC(=N)N6)NC5=O)cc4)C(O)C3O)C(O)C(O)C2O)cc1 (stereo not shown)
4

Also check CC(C)CC(=O)OCC1OC(OC2C(CO)OC(Oc3ccc(CC4NC(=O)C(Cc5ccccc5)NC(=O)CNC(=O)C(CO)NC(=O)C(C(O)C5CNC(=N)N5C5OC(CO)C(O)C(O)C5O)NC(=O)C(C(O)C5CNC(=N)N5)NC4=O)cc3)C(O)C2O)C(O)C(O)C1O (stereo not shown) [Example 283c]
32

Continuing:
Reported MIC Staphylococcus aureus (GC 4542) for CC(C)CC(=O)OC1C(O)C(CO)OC(OC2C(CO)OC(Oc3ccc(CC4NC(=O)C(C(C)c5cccc(F)c5)NC(=O)CNC(=O)C(CO)NC(=O)C(C(O)C5CNC(=N)N5C5OC(CO)C(O)C(O)C5O)NC(=O)C(C(O)C5CNC(=N)N5)NC4=O)cc3)C(O)C2O)C1O (stereo not shown) [Example 264b] : what is it?
8

---

Please provide measured MIC Enterococcus faecium (GC 2243) for the entries that follow.
Test system: Enterococcus sp.
Experiment: In vitro antibacterial evaluation: minimum inhibitory concentration (MIC), broth dilution method
Assay type: cell-based
Conditions: strain GC 2243

Tell me reported MIC Enterococcus faecium (GC 2243) for CCCCCCN=C1NCC(C(O)C2NC(=O)C(C(O)C3CNC(=N)N3)NC(=O)C(Cc3ccc(OC4OC(CO)C(OC5OC6COC7(OC6C(O)C5O)C5CC6CC(C5)CC7C6)C(O)C4O)cc3)NC(=O)C(C(C)c3ccccc3)NC(=O)CNC(=O)C(CO)NC2=O)N1C1OC(CO)C(O)C(O)C1O (stereo not shown) [Example 84] , tested with Enterococcus sp..
4 µg/mL

Also check CC(c1ccccc1)C1NC(=O)CNC(=O)C(CO)NC(=O)C(C(O)C2CNC(=N)N2C2OC(CO)C(O)C(O)C2O)NC(=O)C(C(O)C2CNC(=N)N2)NC(=O)C(Cc2ccc(OC3OC(CO)C(OC4OC5COC(c6cccc(Cl)c6)OC5C(O)C4O)C(O)C3O)cc2)NC1=O (stereo not shown) [Example 138]
4 µg/mL

Also check CC(c1ccccc1)C1NC(=O)CNC(=O)C(CO)NC(=O)C(C(O)C2CNC(=N)N2C2OC(CO)C(O)C(O)C2O)NC(=O)C(C(O)C2CNC(=N)N2)NC(=O)C(Cc2ccc(OC3OC(CO)C(OC4OC(COC(=O)C(c5ccccc5)c5ccccc5)C(O)C(O)C4O)C(O)C3O)cc2)NC1=O (stereo not shown) [Example 96c]
2 µg/mL

List reported MIC Enterococcus faecium (GC 2243) for each of these compounds:
1. COc1cc(C2OCC3OC(OC4C(CO)OC(Oc5ccc(CC6NC(=O)C(C(C)c7ccccc7)NC(=O)CNC(=O)C(CO)NC(=O)C(C(O)C7CNC(=N)N7C7OC(CO)C(O)C(O)C7O)NC(=O)C(C(O)C7CNC(=N)N7)NC6=O)cc5)C(O)C4O)C(O)C(O)C3O2)cc([N+](=O)[O-])c1O (stereo not shown) [Example 169]
2. CC(c1ccccc1)C1NC(=O)CNC(=O)C(CO)NC(=O)C(C(O)C2CN(Cc3ccccc3)C(=NCc3ccccc3)N2C2OC(CO)C(O)C(O)C2O)NC(=O)C(C(O)C2CN(Cc3ccccc3)C(=NCc3ccccc3)N2Cc2ccccc2)NC(=O)C(Cc2ccc(OC3OC(CO)C(OC4OC5COC6(OC5C(O)C4O)C4CC5CC(C4)CC6C5)C(O)C3O)cc2)NC1=O (stereo not shown) [Example 79]
3. CC(c1ccccc1)C1NC(=O)CNC(=O)C(CO)NC(=O)C(C(O)C2CNC(=N)N2C2OC(CO)C(O)C(O)C2O)NC(=O)C(C(O)C2CNC(=N)N2)NC(=O)C(Cc2ccc(OC3OC(CO)C(OC4OC(CO)C(O)C5OC(c6ccc(-c7ccsc7)cc6)OC45)C(O)C3O)cc2)NC1=O (stereo not shown) [Example 164a]
4. CC(c1ccccc1)C1NC(=O)CNC(=O)C(CO)NC(=O)C(C(O)C2CNC(=N)N2C2OC(CO)C(O)C(O)C2O)NC(=O)C(C(O)C2CNC(=N)N2)NC(=O)C(Cc2ccc(OC3OC(CO)C(OC4OC5COC(c6ccc(Oc7ccc(C(C)(C)C)cc7)cc6)OC5C(O)C4O)C(O)C3O)cc2)NC1=O (stereo not shown) [Example 181]
5. COc1cc(OC)cc(C2OCC3OC(OC4C(CO)OC(Oc5ccc(CC6NC(=O)C(C(C)c7ccccc7)NC(=O)CNC(=O)C(CO)NC(=O)C(C(O)C7CNC(=N)N7C7OC(CO)C(O)C(O)C7O)NC(=O)C(C(O)C7CNC(=N)N7)NC6=O)cc5)C(O)C4O)C(O)C(O)C3O2)c1 (stereo not shown) [Example 150]
6. CC(c1ccccc1)C1NC(=O)CNC(=O)C(CO)NC(=O)C(C(O)C2CNC(=N)N2C2OC(CO)C(O)C(O)C2O)NC(=O)C(C(O)C2CNC(=N)N2)NC(=O)C(Cc2ccc(OC3OC(CO)C(OC4OC5COC(c6ccc(C=Cc7ccccc7)cc6)OC5C(O)C4O)C(O)C3O)cc2)NC1=O (stereo not shown) [Example 172]
7. COc1cc(OC)cc(C2OC3C(OC4C(CO)OC(Oc5ccc(CC6NC(=O)C(C(C)c7ccccc7)NC(=O)CNC(=O)C(CO)NC(=O)C(C(O)C7CNC(=N)N7C7OC(CO)C(O)C(O)C7O)NC(=O)C(C(O)C7CNC(=N)N7)NC6=O)cc5)C(O)C4O)OC(CO)C(O)C3O2)c1 (stereo not shown) [Example 150a]
8. CCCCCCCN1CC(C(O)C2NC(=O)C(C(O)C3CNC(=N)N3)NC(=O)C(Cc3ccc(OC4OC(CO)C(OC5OC6COC7(OC6C(O)C5O)C5CC6CC(C5)CC7C6)C(O)C4O)cc3)NC(=O)C(C(C)c3ccccc3)NC(=O)CNC(=O)C(CO)NC2=O)N(C2OC(CO)C(O)C(O)C2O)C1=N (stereo not shown) [Example 83]

1. >64 µg/mL
2. 8 µg/mL
3. 8 µg/mL
4. 2 µg/mL
5. 8 µg/mL
6. 8 µg/mL
7. >64 µg/mL
8. 2 µg/mL

List reported MIC Enterococcus faecium (GC 2243) for each of these compounds:
1. CC(c1ccccc1)C1NC(=O)CNC(=O)C(CO)NC(=O)C(C(O)C2CNC(=N)N2C2OC(CO)C(O)C(O)C2O)NC(=O)C(C(O)C2CNC(=N)N2)NC(=O)C(Cc2ccc(OC3OC(CO)C(OC4OC5COC(c6ccc(S(C)(=O)=O)cc6)OC5C(O)C4O)C(O)C3O)cc2)NC1=O (stereo not shown) [Example 157]
2. CC(c1ccccc1)C1NC(=O)CNC(=O)C(CO)NC(=O)C(C(O)C2CNC(=N)N2C2OC(CO)C(O)C(O)C2O)NC(=O)C(C(O)C2CNC(=N)N2)NC(=O)C(Cc2ccc(OC3OC(CO)C(OC4OC5COC(c6cccc(-c7ccccc7)c6)OC5C(O)C4O)C(O)C3O)cc2)NC1=O (stereo not shown) [Example 154]

["64 µg/mL", "2 µg/mL"]
